# assayed target: wild-type his-tagged mouse Pgp transporter reconstituted into liposomes (Mus musculus, UniProt P21447)
# Sequence (P21447 whole entry): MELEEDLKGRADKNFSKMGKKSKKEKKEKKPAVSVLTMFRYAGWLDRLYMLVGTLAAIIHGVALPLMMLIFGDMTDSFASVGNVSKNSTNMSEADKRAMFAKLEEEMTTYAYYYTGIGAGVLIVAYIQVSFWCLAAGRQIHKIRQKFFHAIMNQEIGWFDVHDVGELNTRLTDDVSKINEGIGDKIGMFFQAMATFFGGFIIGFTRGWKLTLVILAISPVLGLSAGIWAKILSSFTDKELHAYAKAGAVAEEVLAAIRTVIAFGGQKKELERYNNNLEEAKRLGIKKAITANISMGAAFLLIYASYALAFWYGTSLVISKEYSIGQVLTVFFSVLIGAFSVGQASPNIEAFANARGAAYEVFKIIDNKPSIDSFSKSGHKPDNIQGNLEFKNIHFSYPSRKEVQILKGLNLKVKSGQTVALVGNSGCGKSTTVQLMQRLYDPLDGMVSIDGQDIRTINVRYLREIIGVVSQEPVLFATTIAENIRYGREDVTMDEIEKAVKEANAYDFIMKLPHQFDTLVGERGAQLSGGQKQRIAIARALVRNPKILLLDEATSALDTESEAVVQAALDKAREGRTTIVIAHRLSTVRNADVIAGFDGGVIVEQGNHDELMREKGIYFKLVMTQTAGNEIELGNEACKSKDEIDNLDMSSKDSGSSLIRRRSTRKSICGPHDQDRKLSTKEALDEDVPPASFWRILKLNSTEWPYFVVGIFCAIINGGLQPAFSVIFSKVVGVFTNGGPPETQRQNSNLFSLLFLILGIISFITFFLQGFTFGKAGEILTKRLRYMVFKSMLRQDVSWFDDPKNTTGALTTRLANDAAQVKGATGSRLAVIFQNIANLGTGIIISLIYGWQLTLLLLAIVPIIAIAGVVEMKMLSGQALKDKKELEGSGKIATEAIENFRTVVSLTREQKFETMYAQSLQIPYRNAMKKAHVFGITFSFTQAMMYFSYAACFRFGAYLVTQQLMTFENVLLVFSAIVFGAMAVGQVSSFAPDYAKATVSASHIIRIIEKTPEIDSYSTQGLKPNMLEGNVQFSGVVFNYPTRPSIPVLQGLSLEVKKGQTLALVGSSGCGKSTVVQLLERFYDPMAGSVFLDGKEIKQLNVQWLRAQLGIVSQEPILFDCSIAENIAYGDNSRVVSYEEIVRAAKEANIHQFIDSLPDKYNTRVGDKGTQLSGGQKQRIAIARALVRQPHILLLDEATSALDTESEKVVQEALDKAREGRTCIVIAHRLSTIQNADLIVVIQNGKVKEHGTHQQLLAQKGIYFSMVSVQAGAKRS
# assay protocol: Pgp-coupled ATPase activity
# condition context: read-out: KD4 (ATP to EV, one bound verapamil); COPASI fit; 1 mM ATP data set
recorded metric: Kd (µM)
All answers are understood in µM, so give the number only.

*Q* Which Kd is listed for Nc1ncnc2c1ncn2[C@@H]1O[C@H](COP(=O)(O)OP(=O)([O-])OP(=O)([O-])O)[C@@H](O)[C@H]1O.[Na+].[Na+] [ATP, Disodium ATP] ?
*A* 1340

====

# assayed target: wild-type his-tagged mouse Pgp transporter reconstituted into liposomes (Mus musculus, UniProt P21447)
# assay protocol: Pgp-coupled ATPase activity
# condition context: read-out: KD4 (ATP to EV, one bound verapamil); COPASI fit; 2 mM ATP data set
recorded metric: Kd (µM)
All answers are understood in µM, so give the number only.

*Q* Which Kd is listed for Nc1ncnc2c1ncn2[C@@H]1O[C@H](COP(=O)(O)OP(=O)([O-])OP(=O)([O-])O)[C@@H](O)[C@H]1O.[Na+].[Na+] [ATP, Disodium ATP] ?
*A* 1030

====

# assayed target: mouse Pgp reconstituted in liposomes (Mus musculus)
# Sequence (P21447 whole entry): as above
# assay protocol: AMPPNP-induced quenching of Pgp intrinsic tryptophan fluorescence
# condition context: read-out: KD of AMPPNP for Pgp; from high concentration (static) quenching phase
recorded metric: Kd
A complete answer gives the number followed by the unit.

*Q* Which Kd is listed for Nc1ncnc2c1ncn2[C@@H]1O[C@H](COP(=O)([O-])OP(=O)([O-])NP(=O)([O-])[O-])[C@@H](O)[C@H]1O.[Li+].[Li+].[Li+].[Li+] [AMPPNP] ?
*A* 45 µM

====

# assayed target: wild-type his-tagged mouse Pgp transporter reconstituted into liposomes (Mus musculus, UniProt P21447)
# assay protocol: Pgp-coupled ATPase activity
# condition context: read-out: Km for ATP in the presence of Na3VO4; 200 µM Na3VO4; range of ATP concentrations; Equation 1
recorded metric: Km (µM)
All answers are understood in µM, so give the number only.

*Q* Which Km is listed for Nc1ncnc2c1ncn2[C@@H]1O[C@H](COP(=O)(O)OP(=O)([O-])OP(=O)([O-])O)[C@@H](O)[C@H]1O.[Na+].[Na+] [ATP, Disodium ATP] ?
*A* 906

====

# assayed target: wild-type his-tagged mouse Pgp transporter reconstituted into liposomes (Mus musculus, UniProt P21447)
# assay protocol: Pgp-coupled ATPase activity
# condition context: read-out: KD4 (ATP to EV, one bound verapamil); COPASI fit; […] ATP data set
recorded metric: Kd (mM)
All answers are understood in mM, so give the number only.

*Q* Which Kd is listed for Nc1ncnc2c1ncn2[C@@H]1O[C@H](COP(=O)(O)OP(=O)([O-])OP(=O)([O-])O)[C@@H](O)[C@H]1O.[Na+].[Na+] [ATP, Disodium ATP] ?
*A* 1.35

====

# assayed target: wild-type his-tagged mouse Pgp transporter reconstituted into liposomes (Mus musculus)
# assay protocol: Pgp-coupled ATPase activity
# condition context: read-out: KD5 (ATP to EVV, two bound verapamil); COPASI fit; 3.2 mM ATP data set
recorded metric: Kd
A complete answer gives the number followed by the unit.

*Q* Which Kd is listed for Nc1ncnc2c1ncn2[C@@H]1O[C@H](COP(=O)(O)OP(=O)([O-])OP(=O)([O-])O)[C@@H](O)[C@H]1O.[Na+].[Na+] [ATP, Disodium ATP] ?
*A* 210 µM
